Biological target: Human vitronectin receptor (αvβ3) (Homo sapiens, UniProt P05106+P06756)
Construct: Human vitronectin receptor (αvβ3) was purified from human placenta; from tissue; host or cells: human placenta
Assay: Vitronectin adhesion assay (solid phase receptor assay, competition with biotinylated vitronectin)
Assay type: binding
Settings: read-out: AvB3 IC50
Where a name gives a salt, the structure may show the parent alone.
Each record is given 1 if its reported IC50 is strictly below 2 nM. Records at or above 2 nM are given 0.

- N=C(N)Nc1cccc(C(=O)NCC(=O)NC(CC(=O)O)c2cccc(-c3ccccc3)c2)c1 (stereo not shown) [Example 242]: 0
- N=C(N)NCc1cccc(C(=O)NCC(=O)NC(CC(=O)O)c2cccnc2)c1 (racemic) [Example 85]: 0
- CSc1cccc(C(CC(=O)O)NC(=O)CNC(=O)c2cccc(NC(=N)N)c2)c1 (racemic) [Example 245, trifluoroacetate salt]: 1
- N=C(N)Nc1cccc(C(=O)NCC(=O)NC(CC(=O)O)c2cccc(OCC(=O)O)c2)c1 (stereo not shown) [Example 260, trifluoroacetate salt]: 1
- O=C(O)CC(NC(=O)CNC(=O)c1cccc(NC(=O)NNc2ccccc2)c1)c1cccnc1 (stereo not shown) [Example 281, trifluoroacetate salt]: 0
- N=C(N)Nc1cccc(C(=O)NCC(=O)NC(CC(=O)O)c2ccc(-c3ccccc3)cc2)c1 (racemic) [Example 37, trifluoroacetate salt]: 1
- N=C(N)Nc1cccc(C(=O)NCC(=O)NC(CC(=O)O)c2cc(Br)cc(I)c2)c1 (racemic) [Example 219, trifluoroacetate salt]: 0

---

Molecular target: Human fibrinogen receptor (αIIbβ3) (Homo sapiens, UniProt P05106+P08514)
Construct: Human fibrinogen receptor (αIIbβ3) was purified from outdated platelets; from tissue; host or cells: outdated human platelets
Test: Purified IIb/IIIa receptor assay (solid phase receptor assay, competition with biotinylated vitronectin)
Type: binding
Details: read-out: IIb/IIIa IC50
pIC50: −log10 of the molar value. Structures can show the parent of a compound that is named as a salt.
measured-parameter: pIC50

* C#C[C@H](CC(=O)O)NC(=O)CNC(=O)c1cccc(N/C(=N/C#N)NC)c1 [Example 141] | 6.90
* N=C(N)Nc1cccc(C(=O)NCC(=O)NC(CC(=O)O)c2cncc(Br)c2)c1 (racemic) [Example 235, monohydrate] | 7.52
* N=C(NCc1ccccc1)Nc1cccc(C(=O)NCC(=O)NC(CC(=O)O)c2cccnc2)c1 (racemic) [Example 24] | 7.23
* O=C(O)CC(NC(=O)CNC(=O)c1cccc(NC2=NCCCC2)c1)c1cc(Cl)cc(Cl)c1 (racemic) [Example 205, trifluoroacetate salt] | 5.91

---

Biological target: Human vitronectin receptor (αvβ3) (Homo sapiens, UniProt P05106+P06756)
Construct: Human vitronectin receptor (αvβ3) was purified from human placenta; from tissue; host or cells: human placenta
Experiment: Vitronectin adhesion assay (solid phase receptor assay, competition with biotinylated vitronectin)
Format: binding
Conditions: read-out: AvB3 IC50
Structures can show the parent of a compound that is named as a salt.
measured-parameter: IC50

- COC(=O)CC(CC(=O)O)NC(=O)CNC(=O)c1cccc(NC(=N)N)c1 (racemic) [Example 54, trifluoroacetate salt]: 10.7 nM
- Cc1ccc(S(=O)(=O)CCC(CC(=O)O)NC(=O)CNC(=O)c2cccc(NC(=N)N)c2)cc1 (racemic) [Example 67, trifluoroacetate salt]: 2.05 nM
- Cc1ccc(S(=O)(=O)NC(=O)Nc2cccc(C(=O)NCC(=O)NC(CC(=O)O)c3cccnc3)c2)cc1 (centres unmarked) [Example 112, trifluoroacetate salt]: 284 nM
- CCOc1cc(OCC)cc(C(CC(=O)O)NC(=O)CNC(=O)c2cccc(NC(=N)N)c2)c1 (centres unmarked) [Example 249, trifluoroacetate salt]: 5.31 nM
- Cc1ccsc1C(CC(=O)O)NC(=O)CNC(=O)c1cccc(NC(=N)N)c1 (centres unmarked) [Example 244, trifluoroacetate salt]: 17.6 nM
- CCN/C(=N\C#N)Nc1cccc(C(=O)NCC(=O)NC(CC(=O)OCC)c2ccccc2)c1 (centres unmarked): 50700 nM
- COC(=O)c1ccccc1SCCC(CC(=O)O)NC(=O)CNC(=O)c1cccc(NC(=N)N)c1 (racemic) [Example 62, trifluoroacetate salt]: 1.42 nM
- N=C(N)Nc1cccc(C(=O)NCC(=O)NC(CC(=O)O)c2ccn[nH]2)c1 (centres unmarked) [Example 252, trifluoroacetate salt]: 1.52 nM
- N=C(N)Nc1cccc(C(=O)NCC(=O)NC(CC(=O)O)c2c(F)c(F)cc(F)c2F)c1 (racemic) [Example 365, trifluoroacetate salt]: 16.9 nM
- N=C(N)Nc1cccc(C(=O)NCC(=O)NC(CC(=O)O)C(F)(F)F)c1 (centres unmarked) [Example 261, trifluoroacetate salt]: 6.47 nM
- O=C(O)CC(NC(=O)CNC(=O)c1cccc(NC2=NCCCS2)c1)c1cccnc1 (centres unmarked): 0.45 nM
- O=C(O)CC(NC(=O)CNC(=O)c1cccc(NC(=O)NCc2ccccc2)c1)c1ccc2c(c1)OCO2 (centres unmarked): 0.79 nM
- N=C(N)Nc1cccc(C(=O)NCC(=O)NC(CC(=O)O)c2ccc(Cl)c(Cl)c2)c1 (racemic) [Example 175, trifluoroacetate salt]: 2.12 nM
- O=C(O)CC(NC(=O)CNC(=O)c1cccc(NC(=O)NCc2ccccc2)c1)c1cccc(Cl)c1 (centres unmarked) [Example 270, monohydrate]: 5.51 nM
- N=C(N)Nc1cccc(C(=O)NCC(=O)NC(CCSc2ccccc2C(=O)O)CC(=O)O)c1 (racemic) [60(B), trifluoroacetate salt]: 1.21 nM
- N=C(N)Nc1cccc(C(=O)NCC(=O)N[C@H](CSc2ccccc2C(=O)O)CC(=O)O)c1 [Example 72, trifluoroacetate salt]: 1.21 nM
- N=C(N)Nc1cccc(C(=O)NCC(=O)NC(CC(=O)O)c2ccoc2)c1 (racemic) [Example 52, trifluoroacetate salt]: 3.62 nM
- CN/C(=N\C#N)Nc1cccc(C(=O)NCC(=O)NC(CC(=O)O)c2ccccc2)c1 (centres unmarked): 16.2 nM
- CNC(=NC#N)Nc1cccc(C(=O)NCC(=O)NC(CC(=O)O)c2cc(Cl)cc(Cl)c2)c1 (racemic): 114 nM
- O=C(O)CC(NC(=O)CNC(=O)c1cccc(NC(=O)NCCc2ccccc2)c1)c1cccnc1 (centres unmarked) [Example 130, trifluoroacetate salt]: 47 nM
- O=C(O)CC(NC(=O)CNC(=O)c1cccc(NC(=O)NCc2cccnc2)c1)c1cccnc1 (centres unmarked) [Example 127, bis trifluoroacetate salt]: 0.51 nM
- N=C(N)Nc1cccc(C(=O)NCC(=O)NC(CC(=O)O)CC(=O)Nc2cc(Cl)cc(Cl)c2)c1 (centres unmarked) [Example 288, trifluoroacetate salt]: 8.62 nM
- Cc1ccc(C(=O)NCC(=O)NC(CC(=O)O)c2cccnc2)cc1NC(=N)N (racemic): 3.39 nM
- NC(=O)/N=C(/N)Nc1cccc(C(=O)NCC(=O)NC(CC(=O)O)c2cc(Cl)cc(Cl)c2)c1 (centres unmarked) [Example 162, trifluoroacetate salt]: 4.62 nM
- NC(=S)Nc1cccc(C(=O)NCC(=O)NC(CC(=O)O)c2cccnc2)c1 (centres unmarked) [Example 114, trifluoroacetate salt]: 3.26 nM
- CCOC(=O)CC(NC(=O)CNC(=O)c1cccc(N/C(=N/C#N)NCc2ccccn2)c1)c1ccccc1 (centres unmarked) [Example 143, trifluoroacetate salt]: 6700 nM

Each recorded value in this set is attributed to patent US6831199B1.
